Every entry's value here was drawn from patent US20250320312A1.

STUDY_SYSTEM: T1, Peptide 8: Biotin-AEAAAKEAAAKEAAAKEAAAKAAA-Tyr-acid (N-terminal biotin; C-terminal acid; no PC)
T1 construct: control peptide without PC
T1 peptide: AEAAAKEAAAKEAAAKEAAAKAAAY
TEST_PROTOCOL: scFv ELISA
Description: For ELISA analysis of scFv binding, 96-well polystyrene plates were coated with Peptide 1, 4, 5, 8 or 100 μL BSA (10 μg/mL) in PBS at 4° C. overnight. […] All plates were washed three times with PBS-Tween before 40 μL aliquots of PPE were added to assay plates along with 50 μL 10% BSA, and plates were incubated for 1 hour at room temperature. […] The amount of scFv bound to each well was quantitated from absorbance measurement at 450 nm (OD450).
OBSERVED_PROPERTY: OD450
Just the number plus its unit, please.

# lookup: OD450 of PcOxP_DB01_D01 (scFv, V domains shown, scFv in periplasmic extract) VH: EVQLLESGGGLVQPGGSLRLSCAASGFTFSSYYMEWVRQAPGKGLEWVAASRNKANDYTTEYADSVKGRFTISRDNSKNTLYLQMNSLRAEDTAVYYCARDYYGSSYWYFDVWGQGTLVTVSS VL: DIVMTQSPDSLAVSLGERATINCTASESLYSPKHKVHYLAWYQQKPGQPPKLLIYGASNRYIGVPDRFSGSGSGTDFTLTISSLQAEDVAVYYCAQFYIYPLTFGGGTKVEIK
0.04 OD450

Can you share its OD450? I mean this binder: PcOxP_DB02_D03 (scFv, V domains shown, scFv in periplasmic extract) VH: EVQLLESGGGLVQPGGSLRLSCAASGFTQSDFYMEWVRQAPGKGLEWVAASRNKANAYTTEYADSVKGRFTISRDNSKNTLYLQMNSLRAEDTAVYYCARDYYGYSYWYFDVWGQGTLVTVSS VL: DIVMTQSPDSLAVSLGERATINCTASESLYSSKHKVHYLAWYQQKPGQPPKLLIYGNSNRYIGVPDRFSGSGSGTDFTLTISSLQAEDVAVYYCGQFYSYPLTFGGGTKVEIK
0.04 OD450
